From: the supplement of paper PMC11579375

Test system: 17F1 (fetal-I hepatoblastoma organoid with intermediate liver markers)
Experiment: area under the viability dose-response curve (AUC) (AUC (arbitrary units, max 500 = no viability loss)); higher = less sensitive (higher viability)
Conditions: exposure time: 120 h; concentration range: 0.1 nM - 10 µM, 6 doses
reported.endpoint: area under the viability dose-response curve

- compound: "CO[C@H]1C[C@@H]2CC[C@@H](C)[C@@](O)(O2)C(=O)C(=O)N2CCCC[C@H]2C(=O)O[C@H]([C@H](C)C[C@@H]2CC[C@@H](OCCO)[C@H](OC)C2)CC(=O)[C@H](C)/C=C(\\C)[C@@H](O)[C@@H](OC)C(=O)[C@H](C)C[C@H](C)/C=C/C=C/C=C/1C"
  censor.symbol: "="
  observed.result: 494
- compound: "Cc1ncc(Cl)cc1NCc1ccc(C(=O)N[C@@H](CC2CCCC2)C(=O)NC2CC2)s1"
  censor.symbol: ">"
  observed.result: 500
- compound: "C=CCNC1=C2C[C@@H](C)C[C@H](OC)[C@H](O)[C@@H](C)/C=C(\\C)[C@H](OC(N)=O)[C@@H](OC)/C=C\\C=C(/C)C(=O)NC(=CC1=O)C2=O"
  censor.symbol: "="
  observed.result: 373
- compound: "CC(=O)O[C@H]1C(=O)[C@@]2(C)[C@H]([C@H](OC(=O)c3ccccc3)[C@]3(O)C[C@H](OC(=O)[C@H](O)[C@@H](NC(=O)c4ccccc4)c4ccccc4)C(C)=C1C3(C)C)[C@]1(OC(C)=O)CO[C@@H]1C[C@@H]2O"
  censor.symbol: "="
  observed.result: 222
- compound: "COc1cc(Nc2ncc3c(n2)-c2ccc(Cl)cc2C(c2c(F)cccc2OC)=NC3)ccc1C(=O)O"
  censor.symbol: "="
  observed.result: 494
- compound: "CCc1cc2c(cc1N1CCC(N3CCOCC3)CC1)C(C)(C)c1[nH]c3cc(C#N)ccc3c1C2=O"
  censor.symbol: "="
  observed.result: 499
- compound: "Cc1c2c(nn1C)CSCc1cc(n(C)n1)CSc1cc(c3ccccc3c1)OCCCc1c(C(=O)O)n(C)c3c-2c(Cl)ccc13"
  censor.symbol: "="
  observed.result: 482
- compound: "O=C1NC(=O)[C@@H](c2cn3c4c(cccc24)CCC3)[C@@H]1c1c[nH]c2ccccc12 [Tivantinib]"
  censor.symbol: "="
  observed.result: 415
- compound: "COCC1(CO)C(=O)C2CCN1CC2 (stereo not drawn)"
  censor.symbol: "="
  observed.result: 497
- compound: "Cc1c(Cn2c(C)nc3c(C(=O)O)cc(N4CCOCC4)cc32)cccc1C(F)(F)F"
  censor.symbol: "="
  observed.result: 498
- compound: "Nc1ncn([C@H]2C[C@H](O)[C@@H](CO)O2)c(=O)n1"
  censor.symbol: "="
  observed.result: 466
- compound: "CO[C@@H]1[C@H](N(C)C(=O)c2ccccc2)C[C@H]2O[C@]1(C)n1c3ccccc3c3c4c(c5c6ccccc6n2c5c31)C(=O)NC4"
  censor.symbol: "="
  observed.result: 442
- compound: "C#Cc1cccc(Nc2ncnc3cc(OCCOC)c(OCCOC)cc23)c1"
  censor.symbol: "="
  observed.result: 448
